- test-target: HA H5 A/Vietnam/1203/04 (Influenza A virus (A/Vietnam/1203/2004(H5N1)), UniProt Q5EP31)
- protocol-details: biochemical
- setup-conditions: Competition binding (AlphaLISA), pIC50 H5 A/Vietnam/1203/04
Record form. Attribute: pIC50. Fill in for each entry.
Answers are plain numbers, as −log10 of the molar value.

Answered examples (3):
query: Give its pIC50 value. Item: O=C(c1cc(-c2nc3cc(C(F)(F)F)ccc3o2)ccn1)N1CCN(C(c2ccccc2)c2nnc(C3CC3)o2)CC1 (centres unmarked) [Example 34]
result: 5.90

query: Give its pIC50 value. Item: COC(=O)C(c1ccccc1)N1CCN(C(=O)c2ccnc(-c3nc4cc(C(F)(F)F)ccc4o3)c2)CC1 (centres unmarked) [Example 119]
result: 5.70

query: Give its pIC50 value. Item: COC(=O)C(c1ccccc1)N1CCN(C(=O)c2cccc(-c3nc4ncccc4o3)c2)CC1 (centres unmarked) [Example 24]
result: 5.50

Report pIC50 for every entry below.
1. Cc1nnc([C@@H](c2ccccc2)N2CCN(C(=O)c3cccc(-c4cnc5ccccc5c4)c3)CC2)o1 [Example 76]
2. COc1ccc2nc(-c3cccc(C(=O)N4CCN(C(c5ccccc5)c5nnco5)CC4)c3)sc2c1 (centres unmarked) [Example 79]
3. COc1ccc2oc(-c3cccc(C(=O)N4CCN(C(c5ccccc5)c5nnc(C)o5)CC4)c3)nc2c1 (centres unmarked) [Example 36]
4. COC(=O)C(c1ccccc1)N1CCN(C(=O)c2cccc(-c3nc4ccc(OC)cc4o3)c2)CC1 (centres unmarked) [Example 60]
5. O=C(c1cccc(-c2cc3ccccc3o2)c1)N1CCN(Cc2ccccc2)CC1 [Example 85]

result:
[5.00, 5.90, 6.00, 5.80, 5.50]

---

- protocol-details: in vitro
- setup-conditions: dog, Cytotoxicity (pCC50) MDCK
Record form. Attribute: CC50. Fill in for each entry.

query: Give its CC50 value. Item: COC(=O)C(c1ccccc1)N1CCN(C(=O)c2cccc(-c3nc4ccc(OC)cc4s3)n2)CC1 (stereo not shown)
result: > 50.1 µM

query: Give its CC50 value. Item: COCC(c1ccccc1)N1CCN(C(=O)c2cccc(-c3nc4ccc(OC)cc4s3)c2)CC1 (stereo not shown)
result: > 50.1 µM

query: Give its CC50 value. Item: COC(=O)[C@@H](c1ccccc1)N1CCN(C(=O)c2cccc(-c3nc4cc(OC)ccc4o3)c2)CC1
result: > 50.1 µM

More entries:
query: Give its CC50 value. Item: COc1ccc2nc(-c3cccc(C(=O)N4CCN([C@H](c5ccccc5)c5nnn(C)n5)CC4)c3)sc2c1
result: 39.8 µM

---

- test-target: HA H1 A/California/07/09 (Influenza A virus (A/California/07/2009(H1N1)))
- protocol-details: biochemical
- setup-conditions: Competition binding (AlphaLISA), pIC50 H1 A/California/07/09
Record form. Attribute: IC50. Fill in for each entry.
Answers are plain numbers, in µM.

Answered examples (2):
query: Give its IC50 value. Item: COC(=O)[C@H](c1ccccc1)N1CCN(C(=O)c2cccc(-c3nc4cc(C(F)(F)F)ccc4o3)c2)[C@H](C(N)=O)C1
result: 0.0316

query: Give its IC50 value. Item: COC(=O)[C@@H](c1ccccc1)N1CCN(C(=O)c2cccc(-c3nc4cc(C(F)(F)F)ccc4o3)c2)[C@H](C)C1
result: 0.0631

Report IC50 for every entry below.
1. Cn1nnc([C@@H](c2ccccc2)N2CCN(C(=O)c3cc(-c4nc5cc(OC(F)(F)F)ccc5o4)ccn3)CC2)n1
2. Cc1nnc([C@@H](c2ccccc2)N2CCN(C(=O)c3cccc(-c4ncc5ccccc5n4)c3)CC2)o1
3. Cc1nnc([C@@H](c2ccccc2)N2CCN(C(=O)c3cc(-c4nc5cc(C(F)(F)F)ccc5o4)ccc3F)CC2)o1
4. COc1ccc2nc(-c3cccc(C(=O)N4CCN(C(C(N)=O)c5ccccc5)CC4)c3)sc2c1 (stereo not shown)
5. COC(=O)[C@H](c1ccccc1)N1CCN(C(=O)c2cccc(-c3nc4cc(C(F)(F)F)ccc4o3)c2)[C@@H](C(N)=O)C1

result:
1: 0.0158; 2: 0.0501; 3: 0.0631; 4: 0.316; 5: 0.1
